Where these numbers come from: ChEMBL document CHEMBL4513216

# test.details: Toxicity liver stage against HepG2, at 10uM
# Assay type: cell-based
# Design: test concentration 10 uM, cell line HepG2-A16-CD81EGFP
# test.conditions: human, HepG2-A16-CD81EGFP cells; read-out: INHIBITION
What cytotoxicity at 10 µM was measured for each of the following?
Answers are plain numbers, in %.

Some entries whose results are on file:
                                   compound     measured_parameter  value_observed
0  O=C1CCC2(CCC(NC(=O)NCc3ccccc3)CC2)N1 (stereo unspecified)  cytotoxicity at 10 µM         -0.0957
1  CC(C)CC(C(=O)N1CCCSCC1)N1CCCCC1=O (stereo unspecified)  cytotoxicity at 10 µM             -11
2   COCCN(Cc1ccsc1)C(=O)c1c(C)cc(C)[nH]c1=O  cytotoxicity at 10 µM           -2.42
3  Cc1ncsc1CN1C[C@@H](O)[C@](O)(CNC(=O)c2ccccn2)C1  cytotoxicity at 10 µM          -0.973
4  COc1cc(N2C[C@@H]3COC[C@]3(COc3ncccc3F)C2)ncn1  cytotoxicity at 10 µM           -67.5

For each entry beneath this line, provide reported cytotoxicity at 10 µM.
1. CSCC(=O)NC(Cc1ccc(C)cc1)c1ccccn1 (stereo unspecified)
2. O=C(CN1CCCC(Cn2cncn2)C1)NCCCc1ccccc1 (stereo unspecified)
3. Cc1sc(-c2ccco2)nc1C(=O)N(CC(N)=O)C1CCCC1
4. Cc1cc(C(=O)N2CC[C@H]3C[C@H](c4ccncn4)O[C@@H]3C2)c(C)[nH]1
5. Cc1nc([C@H]2C[C@@H]3CCN(C(=O)c4ccnnc4)C[C@H]3O2)sc1C
6. CCn1cc(NC(=O)C2CCN(Cc3ccccc3)CC2)cn1

output:
[1.23, -10.7, -2.64, -70.1, 1.01, 2.41]

* * *

What cytotoxicity at 10 µM was measured for each of the following?
# test.details: Toxicity liver stage against HepG2, at 10uM
# Assay type: cell-based
# Design: test concentration 10 uM, cell line HepG2-A16-CD81EGFP
# test.conditions: human, HepG2-A16-CD81EGFP cells; read-out: INHIBITION
Give bare numbers, in %.

In [3]: df
Out[3]:
                                   compound  units_symbol  value_observed
0  CC(C)Cc1cn(C2CCN(C(C)CC3CC3)CC2)nn1 (centres undefined)             %            -2.9
1    Cc1c(CNC(=O)NCc2cccc(-n3cncn3)c2)cnn1C             %            1.78
2  COc1ccccc1NC(=O)CSC1CCc2ccccc2NC1=O (centres undefined)             %              20
3  CN(Cc1cccnc1)Cc1cn2c(n1)CN(C1CCOC1)CC2 (centres undefined)             %             6.2
4  Cc1ccc(C)c(CSc2nnc(C(N)Cc3ccccc3)o2)c1 (centres undefined)             %          -0.431
5  O=C(NC[C@H]1Cn2c(-c3ccccc3)cnc2CO1)C1CC1             %           -3.01
6                NC(=O)CCNC(=O)Cc1cccc(I)c1             %           -1.08
7  CCN(CC1CCOC1)C(=O)c1cccnc1N1CCOCC1 (centres undefined)             %           -10.8

For each entry beneath this line, provide reported cytotoxicity at 10 µM.
1. CC1CCCN(Cc2c(C3CC3)[nH]c3ncccc23)C1 (centres undefined)
2. CC(C)Cn1cncc1CNC(=O)c1cccc(Cn2cccn2)c1
3. Cc1cccc(C)c1Nc1noc2c1CN(C(=O)c1ccnn1C)CC2
4. Cc1nc(C(=O)N2C[C@@H]3COC[C@]3(COCc3cccnc3)C2)cs1
5. O=C1COC2(COCCN(Cc3cccnc3)C2)CN1c1ccccc1 (centres undefined)

output:
1. -34.1
2. -3.12
3. 7.3
4. -1.92
5. 9.72

For each entry beneath this line, provide reported cytotoxicity at 10 µM.
1. CN1CCN(C(CNC(=O)CCn2cccn2)c2cccs2)CC1 (centres undefined)
2. Cc1nc(CCNC(=O)Nc2cc(C(F)(F)F)c[nH]c2=O)cs1
3. Cc1noc(C)c1CCCNc1cnccn1
4. Fc1ccc(F)c(CN2CCC(c3cnccn3)CC2)c1
5. COC1CCN(CCNC(=O)NC(C)c2ccc(F)c(F)c2)CC1 (centres undefined)
6. CN1CCN(C[C@H]2CC[C@@H](Cc3ccc(CN4CCCC4)cc3)O2)CC1
7. OC1CCCN(Cc2c(-c3ccco3)[nH]c3ncccc23)C1 (centres undefined)
8. CSC(CNS(=O)(=O)c1cnn(C)c1)c1cccc(Cl)c1 (centres undefined)

output:
24.4
0.614
10.2
-1.61
9.88
-7.32
-5.87
4.63

* * *

# test.details: Toxicity liver stage against HepG2, at 10uM
# Format: cell-based
# Parameters: test concentration 10 uM, cell line HepG2-A16-CD81EGFP
# test.conditions: human, HepG2-A16-CD81EGFP cells; read-out: INHIBITION
measured.parameter: cytotoxicity at 10 µM (%)
One number for each entry, in %.

For each entry beneath this line, provide reported cytotoxicity at 10 µM.
1. Cc1cc(NS(=O)(=O)CC2CCCCO2)ccc1F (centres undefined)
2. Cc1nnc(SCCCNC(=O)c2ccc3c(c2)OCO3)s1
3. O=C(COC1CCCCC1)Nc1ccn(CCc2ccncc2)n1
4. Cc1ccc(C(=O)Nc2cc(F)ccc2OCC2CCCO2)cn1 (centres undefined)

output:
1. -11.7
2. 8.8
3. -3.87
4. 0.207

* * *

# test.details: Toxicity liver stage against HepG2, at 10uM
# Assay type: cell-based
# Design: test concentration 10 uM, cell line HepG2-A16-CD81EGFP
# test.conditions: human, HepG2-A16-CD81EGFP cells; read-out: INHIBITION
What cytotoxicity at 10 µM was measured for each of the following?
# do not omit the unit; it follows the number

Some entries whose results are on file:
                                   compound  value_observed
0  NCC1CN(c2nc(-c3ccccc3)nc3c2CCNCC3)CCO1 (configuration not stated)          -14.9%
1     CC(=O)N(CCC(=O)NC1(C#N)CCC1)Cc1ccccc1           12.6%
2  Cn1c(Cn2ccnc2)nnc1C1CCCN(c2ncccn2)C1 (configuration not stated)          -6.33%
3  O=C1O[C@@H]2CN(Cc3cc4ccccc4s3)C[C@@H]2N1Cc1ccccn1           10.2%
4        O=S(=O)(Cc1c(F)cccc1F)NCCOc1cccnc1          -39.7%

For each entry beneath this line, provide reported cytotoxicity at 10 µM.
1. O=C1CCCN1CCc1noc(-c2ccc3[nH]cnc3c2)n1
2. COc1c(CNC2CCc3cc(Cl)ccc32)c(C)nn1C (configuration not stated)
3. O=C(Cc1ccc(F)cc1)N1C[C@H]2CCN[C@H]2C1

output:
["8.74%", "5.64%", "2.26%"]

For each entry beneath this line, provide reported cytotoxicity at 10 µM.
1. CC(CN1CCOCC1)NC(=O)Nc1cccnc1-n1cccn1 (configuration not stated)
2. CCCc1noc(C2CC(=O)N(C(C)(C)C)C2)n1 (configuration not stated)
3. COCC1(NC(=O)C(c2ccc(F)cc2)N(C)C)CCCC1 (configuration not stated)

output:
["-1.7%", "0.0198%", "-44.9%"]

For each entry beneath this line, provide reported cytotoxicity at 10 µM.
1. CN1CCN(C(=O)C2CCN(c3cccnn3)C2)CC1 (configuration not stated)
2. CS(=O)(=O)NCCNC(=O)C1(c2cccc(Cl)c2)CC1
3. CC(C)CC(=O)N1CC[C@@H]2[C@H](CC1)N(S(C)(=O)=O)CCS2(=O)=O
4. Cc1ccc(N2CC[C@@H]3[C@@H]2CCN3C(=O)Cc2ccsc2)nn1
5. CCc1nnsc1C(=O)N1CCN(CC(O)C(C)(C)C)CC1 (configuration not stated)
6. COCCCN1C(=O)CC[C@H]2CN(Cc3ccc4occc4c3)CC[C@H]21
7. CCOC(=O)[C@@H]1[C@@H](c2ccccc2)CN2CCN(C(=O)N(C)C)C[C@H]12

output:
1. -32.4%
2. 5.63%
3. -11.4%
4. -93.9%
5. 0.542%
6. 8.98%
7. 14.8%

For each entry beneath this line, provide reported cytotoxicity at 10 µM.
1. CC(Cn1cccn1)NCc1csc(-c2cccs2)n1 (configuration not stated)
2. O=C(NCCc1cccc(F)c1)C1(n2cnnn2)CCCCC1
3. COCCNC(=O)c1cc2c(s1)CCN2C(=O)c1ccccc1

output:
1: -8.85%; 2: 1.04%; 3: -12.9%
